Source listed as patent US20090304746A1.

Target: HLA-B*5101 (Human)
Assay: competition with 125I-labelled standard peptide for purified HLA, gel filtration
Experimental endpoint: binding affinity ratio (IC50 standard/IC50 test)
The answer should be written as a number, with no unit following it.

> print(dat)
                                  binder  number
1  SPGEINRVA (modifications not checked)  0.0001
2  QPEYDLELI (modifications not checked)  0.0002

Next up:
Looking up QPGYPWPLY (modifications not checked) , I found its binding affinity ratio (IC50 standard/IC50 test) recorded as 0.0002
